assay: qHTS for Inhibitors of human tyrosyl-DNA phosphodiesterase 1 (TDP1): qHTS in cells in absence of CPT; conditions: DT40 Tdp1-/- hTDP1 cells, no CPT, ATP luminescence, 48 h; further: nearly all actives have a fitted effect of over 55% in size
About 64,000 (15%) of roughly 420,000 compounds were called active. About 27% were inconclusive and are not listed. The call rests on the fitted dose curve; in most records, active means well fitted inhibition curve with a large enough effect; inconclusive means small, poorly fitted or top-dose-only effect; inactive means flat fitted curve, though single readings scatter. The list is a sample of the results.
Please reply with one of these outcomes: active, inactive

- O=C(c1cn(-c2ccccc2)nc1-c1cccnc1)N1CCCCC1: inactive
- COc1ccc(Cl)cc1NS(=O)(=O)c1cccc(C(=O)NC2CCC(O)CC2)c1 (centres undefined): inactive
- CSc1ccc(CCNC(=O)C2CCN(c3nnc(-n4cccc4)s3)CC2)cc1: inactive
- Cc1cc(=O)oc2cc(OCC(=O)Nc3nnc(C4CC4)s3)ccc12: inactive
- Cc1cc(=O)oc2ccc(OCC(=O)O)cc12: inactive
- N/C(=N\OS(=O)(=O)c1cccc([N+](=O)[O-])c1)c1ccncc1: inactive
- O=C(Cn1cnc([N+](=O)[O-])n1)NCCc1ccccc1: inactive
- Cc1ccc(CN2COc3cc(C)c4c(oc(=O)c5ccccc54)c3C2)cc1: inactive

What did the test return for `CC1CCN(C(=O)COC(=O)CCC(=O)c2cccs2)CC1` ?
inactive

Record: CC1Cc2[nH][nH]c(=O)c2C(C2CC2)O1 (centres undefined)
inactive

Record: `c1ccc(C(=NNc2nc3ccccc3s2)c2ccccn2)cc1`
active

Record: `Cc1ccc2nc(N3CCN(C(=O)c4ccco4)CC3)sc2c1`
inactive

Record: Cc1noc(C)c1C(=O)N1CCC1(C)C(=O)NS(=O)(=O)c1ccc(C#N)cc1 (centres undefined)
inactive

Record: `O=C(Nc1ccccc1Cl)O/N=C(/c1ccccc1)c1ccccn1`
inactive

====

Assay: qHTS for Inhibitors of human tyrosyl-DNA phosphodiesterase 1 (TDP1): qHTS in cells in absence of CPT; further: nearly all actives have a fitted effect of over 55% in size; further: potency means the concentration at half of the fitted maximal effect
Conditions: DT40 Tdp1-/- hTDP1 cells, no CPT, ATP luminescence, 48 h
Method: Human tyrosyl-DNA phosphodiesterase 1 (TDP1) is a novel repair gene, and we propose to use it as a new target for anticancer drug development. […] For the primary screen, Tdp1-/-;hTDP1 cells will be exposed to small molecules in the presence or absence of CPT, and their growth kinetics will be evaluated after 48 hours by measuring ATP activity. […] The hit compounds will then be evaluated in the presence or absence of CPT using Tdp1-/- cells. […]
Among all 420,000 compounds or so, about 64,000 (15%) were called active. About 27% were inconclusive and are not listed. A selection follows.
MEASUREMENT_KIND: Potency

Please review the following examples before continuing.
* CC1(C)CC(=O)C=C(NCc2ccncc2)C1 | inactive
* CC(=O)c1nn(-c2ccccc2)c(=Nc2ccccc2)cc1C | inactive
* Cc1ccc(NC(=O)COC(=O)CN2CCCCCC2=O)c(C)c1 | inactive
* Cc1ccc(F)c(NC(=O)CCOc2ccccc2C)c1 | inactive

Please look at the items below and tell me Potency for each one, in order.
1. Cc1ccc(-n2c(SCC(=O)NCCC3=CCCCC3)nc3n[nH]c(C)c3c2=N)cc1Cl
2. CCn1c(SCC(=O)Nc2nccs2)nnc1-c1ccco1
3. COc1ccccc1Cn1c(=S)[nH]c2cc(C(=O)N3CCN(C)CC3)ccc2c1=O

1: 3.26 µM (active); 2: inactive; 3: inactive

Please look at the items below and tell me Potency for each one, in order.
1. O=C(COC(=O)c1ccc(Cl)nc1)NCc1cccs1
2. CC1=CC(=C(C#N)c2nc3ccccc3s2)C=C(C)N1c1ccc(F)cc1F
3. CN(Cc1nc2ccccc2s1)C(=O)c1ccc(F)cc1

inactive
18.4 µM (active)
inactive
